Reported log10 of N2 permeability is given for each of the following molecules.
All values: log10 N2 permeability [Barrer].

Example entries and their recorded answers appear below.
| molecule | log10 of N2 permeability |
| --- | --- |
| *c1ccc(Cc2ccc(-n3c(=O)c4cc5c(=O)n(*)c(=O)c5cc4c3=O)cc2)cc1 (repeat unit) | -1.16 |
| *Nc1ccc(*)cc1OC (repeat unit) | -1.33 |

Supply reported log10 of N2 permeability belonging to this molecule: *c1ccc(C(c2ccc(-c3nnc(*)o3)cc2)(C(F)(F)F)C(F)(F)F)cc1 (repeat unit) 0.79

* * *

observable: O2 permeability (Barrer)
Expressed in Barrer, but write only the number.

| compound | observable | unit spec | observed result |
| --- | --- | --- | --- |
| *CC(*)C(=O)OC (repeat unit) | O2 permeability | Barrer | 1.06 |
| *Oc1ccc(C(C)(c2ccccc2)c2ccc(OC(=O)c3cccc(C(*)=O)c3)cc2)cc1 (repeat unit) | O2 permeability | Barrer | 2.58 |
| *c1cc2c(cc1*)C1(C(C)C)c3ccccc3C2(C(C)C)c2cc3c(cc21)Oc1cc2nc(*)c(*)nc2cc1O3 (repeat unit) | O2 permeability | Barrer | 61 |
| *Cc1ccc(C*)c(C)c1 (repeat unit) | O2 permeability | Barrer | 0.0572 |
| *Oc1c(C)cc(C(C)(C)c2cc(C)c(OC(=O)c3cccc(C(*)=O)c3)c(Br)c2)cc1Br (repeat unit) | O2 permeability | Barrer | 1.52 |

Supply reported O2 permeability belonging to this compound: *c1ccc(Cc2ccc(N3C(=O)c4ccc(C(c5ccc6c(c5)C(=O)N(*)C6=O)(C(F)(F)F)C(F)(F)F)cc4C3=O)c(O)c2)cc1O (repeat unit) 1.22

Supply reported O2 permeability belonging to this compound: *Oc1ccc(Oc2ccc(C(=O)c3ccc(*)cc3)cc2)c(-c2cc(C(F)(F)F)cc(C(F)(F)F)c2)c1 (repeat unit) 3.3

Supply reported O2 permeability belonging to this compound: *c1ccc(-c2ccc(Oc3ccc(C4(c5ccc(Oc6ccc(-c7ccc(-n8c(=O)c9cc%10c(=O)n(*)c(=O)c%10cc9c8=O)cc7)cc6C(F)(F)F)cc5)c5ccccc5C(=O)N4c4ccccc4)cc3)c(C(F)(F)F)c2)cc1 (repeat unit) 7.62

Supply reported O2 permeability belonging to this compound: *c1ccc(Oc2ccc(N3C(=O)c4ccc([Si](C)(C)c5ccc6c(c5)C(=O)N(*)C6=O)cc4C3=O)cc2)cc1 (repeat unit) 0.636

* * *

Reported CH4 permeability is given for each of the following molecules.

Example entries and their recorded answers appear below.
| molecule | CH4 permeability |
| --- | --- |
| *Nc1c(C)cc(C(C)(C)c2cc(C)c(NC(=O)c3ccc(Oc4cc(C(C)(C)C)c(Oc5ccc(C(*)=O)cc5)cc4C(C)(C)C)cc3)c(C)c2)cc1C (repeat unit) | 2.24 Barrer |
| *OC1OC(OC(C)=O)C(*)C(O)C1OC(C)=O (repeat unit) | 0.15 Barrer |
| *c1c(C)cc(-c2cc(C)c(-n3c(=O)c4cc5oc6cc7c(cc6oc5cc4c3=O)C3(C)CCC7(C)c4cc5oc6cc7c(=O)n(*)c(=O)c7cc6oc5cc43)c3ccccc23)c2ccccc12 (repeat unit) | 180 Barrer |
| *Oc1ccc(C(C)(C)c2ccc(Oc3ccc(C(=O)c4ccc(*)cc4)cc3)cc2)cc1 (repeat unit) | 0.18 Barrer |

Supply reported CH4 permeability belonging to this molecule: *c1cc2c(cc1C)-c1cc(C)c(N3C(=O)c4ccc(C(c5ccc6c(c5)C(=O)N(*)C6=O)(C(F)(F)F)C(F)(F)F)cc4C3=O)cc1S2(=O)=O (repeat unit) 1.74 Barrer

Supply reported CH4 permeability belonging to this molecule: *=CC1CCC(C=*)C1 (repeat unit) 2.5 Barrer

Supply reported CH4 permeability belonging to this molecule: *O[Si](C)(C)CC[Si](*)(C)C (repeat unit) 597 Barrer
